Origin of measurements: ChEMBL document CHEMBL5380795

test system: Pseudomonas aeruginosa; assay: Antibacterial activity against carbapenem resistant Pseudomonas aeruginosa clinical isolate 19-3 assessed as inhibition of bacterial growth incubated for 18 to 24 hrs by broth microdilution method; type: functional; conditions: time 18-24 hrs
Bridge positions count the residues as written; N and C are the ends. Square brackets hold non-standard residues; d marks the D form. Peptide text beside a SMILES is read from it. * marks the point of attachment. Decanoyl(3R-OH) = CCCCCCC[C@@H](O)CC(=O)*; X1 = CC[C@H](C)CCCCC(=O)*; dDab = NCC[C@@H](N)C(=O)O; Dab = NCC[C@H](N)C(=O)O
Listed here: items and their measured MIC.
Your answer is read as µg/mL, so omit the unit and give the number.

- compound: "CCCCCCCCCC(=O)N[C@H](CCN)C(=O)N[C@H]1CCNC(=O)[C@H]([C@@H](C)O)NC(=O)[C@H](CCN)NC(=O)[C@H](CCN)NC(=O)[C@H](CC(C)C)NC(=O)[C@@H](Cc2cccc(Cl)c2)NC(=O)[C@H](CCN)NC1=O"
  measured-target: "Pseudomonas aeruginosa"
  reported-property: "MIC"
  measurement: 2
- compound: "CC[C@H](C)CCCCC(=O)N[C@@H](CCN)C(=O)N[C@H](C(=O)N[C@@H](CCN)C(=O)N[C@H]1CCNC(=O)[C@H]([C@@H](C)O)NC(=O)[C@H](CCN)NC(=O)[C@H](CCN)NC(=O)[C@H](CC(C)C)NC(=O)[C@@H](Cc2ccccc2)NC(=O)[C@H](CCN)NC1=O)[C@@H](C)O (X1-[Dab]T[Dab][Dab][Dab][dF]L[Dab][Dab]T; lactam 4-C)"
  measured-target: "Pseudomonas aeruginosa"
  reported-property: "MIC"
  measurement: 0.125
- compound: "CCCCCCCC(=O)N[C@H](CCN)C(=O)N[C@H]1CCNC(=O)[C@H](CC(C)C)NC(=O)[C@H](CCN)NC(=O)[C@H](CCN)NC(=O)[C@H](CC(C)C)NC(=O)[C@@H](CC(C)C)NC(=O)[C@H](CCN)NC1=O"
  measured-target: "Pseudomonas aeruginosa"
  reported-property: "MIC"
  measurement: 4
- compound: "CC(C)C[C@@H]1NC(=O)[C@@H](CC(C)C)NC(=O)[C@H](CCN)NC(=O)[C@@H](NC(=O)[C@@H](CCN)NC(=O)CCCCCc2ccccc2)CCNC(=O)[C@H]([C@@H](C)O)NC(=O)[C@H](CCN)NC(=O)[C@H](CCN)NC1=O"
  measured-target: "Pseudomonas aeruginosa"
  reported-property: "MIC"
  measurement: 4
- compound: "CCCCCCCCC(=O)N[C@H](CCN)C(=O)N[C@H]1CCNC(=O)[C@H](CC(C)C)NC(=O)[C@H](CCN)NC(=O)[C@H](CCN)NC(=O)[C@H](CC(C)C)NC(=O)[C@@H](CC(C)C)NC(=O)[C@H](CCN)NC1=O"
  measured-target: "Pseudomonas aeruginosa"
  reported-property: "MIC"
  measurement: 4

The recorded MIC for CCCCCCC[C@@H](O)CC(=O)N[C@H](CCN)C(=O)N[C@H]1CCNC(=O)[C@H](CC(C)C)NC(=O)[C@H](CCN)NC(=O)[C@H](CCN)NC(=O)[C@H](CC(C)C)NC(=O)[C@@H](Cc2ccccc2)NC(=O)[C@H](CCN)NC1=O ({Decanoyl(3R-OH)}-[dDab][Dab][Dab][dF]L[Dab][Dab]L; lactam 2-C) is 4

Form field MIC, entry CCCCCCC[C@@H](O)CC(=O)N[C@H](CCN)C(=O)N[C@H]1CCNC(=O)[C@H]([C@@H](C)O)NC(=O)[C@H](CCN)NC(=O)[C@H](CCN)NC(=O)[C@H](CC(C)C)NC(=O)[C@@H](CC(C)C)NC(=O)[C@H](CCN)NC1=O : 1
